Reported Dmax is given for each of the following compounds.
- Measured on: wildtype LRRK2 (Homo sapiens, UniProt Q5S007)
- Construct: endogenous in cells; host or cells: HEK293 with HiBit knocked in at the 3' end of the endogenous LRRK2 gene, stably expressing firefly luciferase
- Sequence (Q5S007 whole entry): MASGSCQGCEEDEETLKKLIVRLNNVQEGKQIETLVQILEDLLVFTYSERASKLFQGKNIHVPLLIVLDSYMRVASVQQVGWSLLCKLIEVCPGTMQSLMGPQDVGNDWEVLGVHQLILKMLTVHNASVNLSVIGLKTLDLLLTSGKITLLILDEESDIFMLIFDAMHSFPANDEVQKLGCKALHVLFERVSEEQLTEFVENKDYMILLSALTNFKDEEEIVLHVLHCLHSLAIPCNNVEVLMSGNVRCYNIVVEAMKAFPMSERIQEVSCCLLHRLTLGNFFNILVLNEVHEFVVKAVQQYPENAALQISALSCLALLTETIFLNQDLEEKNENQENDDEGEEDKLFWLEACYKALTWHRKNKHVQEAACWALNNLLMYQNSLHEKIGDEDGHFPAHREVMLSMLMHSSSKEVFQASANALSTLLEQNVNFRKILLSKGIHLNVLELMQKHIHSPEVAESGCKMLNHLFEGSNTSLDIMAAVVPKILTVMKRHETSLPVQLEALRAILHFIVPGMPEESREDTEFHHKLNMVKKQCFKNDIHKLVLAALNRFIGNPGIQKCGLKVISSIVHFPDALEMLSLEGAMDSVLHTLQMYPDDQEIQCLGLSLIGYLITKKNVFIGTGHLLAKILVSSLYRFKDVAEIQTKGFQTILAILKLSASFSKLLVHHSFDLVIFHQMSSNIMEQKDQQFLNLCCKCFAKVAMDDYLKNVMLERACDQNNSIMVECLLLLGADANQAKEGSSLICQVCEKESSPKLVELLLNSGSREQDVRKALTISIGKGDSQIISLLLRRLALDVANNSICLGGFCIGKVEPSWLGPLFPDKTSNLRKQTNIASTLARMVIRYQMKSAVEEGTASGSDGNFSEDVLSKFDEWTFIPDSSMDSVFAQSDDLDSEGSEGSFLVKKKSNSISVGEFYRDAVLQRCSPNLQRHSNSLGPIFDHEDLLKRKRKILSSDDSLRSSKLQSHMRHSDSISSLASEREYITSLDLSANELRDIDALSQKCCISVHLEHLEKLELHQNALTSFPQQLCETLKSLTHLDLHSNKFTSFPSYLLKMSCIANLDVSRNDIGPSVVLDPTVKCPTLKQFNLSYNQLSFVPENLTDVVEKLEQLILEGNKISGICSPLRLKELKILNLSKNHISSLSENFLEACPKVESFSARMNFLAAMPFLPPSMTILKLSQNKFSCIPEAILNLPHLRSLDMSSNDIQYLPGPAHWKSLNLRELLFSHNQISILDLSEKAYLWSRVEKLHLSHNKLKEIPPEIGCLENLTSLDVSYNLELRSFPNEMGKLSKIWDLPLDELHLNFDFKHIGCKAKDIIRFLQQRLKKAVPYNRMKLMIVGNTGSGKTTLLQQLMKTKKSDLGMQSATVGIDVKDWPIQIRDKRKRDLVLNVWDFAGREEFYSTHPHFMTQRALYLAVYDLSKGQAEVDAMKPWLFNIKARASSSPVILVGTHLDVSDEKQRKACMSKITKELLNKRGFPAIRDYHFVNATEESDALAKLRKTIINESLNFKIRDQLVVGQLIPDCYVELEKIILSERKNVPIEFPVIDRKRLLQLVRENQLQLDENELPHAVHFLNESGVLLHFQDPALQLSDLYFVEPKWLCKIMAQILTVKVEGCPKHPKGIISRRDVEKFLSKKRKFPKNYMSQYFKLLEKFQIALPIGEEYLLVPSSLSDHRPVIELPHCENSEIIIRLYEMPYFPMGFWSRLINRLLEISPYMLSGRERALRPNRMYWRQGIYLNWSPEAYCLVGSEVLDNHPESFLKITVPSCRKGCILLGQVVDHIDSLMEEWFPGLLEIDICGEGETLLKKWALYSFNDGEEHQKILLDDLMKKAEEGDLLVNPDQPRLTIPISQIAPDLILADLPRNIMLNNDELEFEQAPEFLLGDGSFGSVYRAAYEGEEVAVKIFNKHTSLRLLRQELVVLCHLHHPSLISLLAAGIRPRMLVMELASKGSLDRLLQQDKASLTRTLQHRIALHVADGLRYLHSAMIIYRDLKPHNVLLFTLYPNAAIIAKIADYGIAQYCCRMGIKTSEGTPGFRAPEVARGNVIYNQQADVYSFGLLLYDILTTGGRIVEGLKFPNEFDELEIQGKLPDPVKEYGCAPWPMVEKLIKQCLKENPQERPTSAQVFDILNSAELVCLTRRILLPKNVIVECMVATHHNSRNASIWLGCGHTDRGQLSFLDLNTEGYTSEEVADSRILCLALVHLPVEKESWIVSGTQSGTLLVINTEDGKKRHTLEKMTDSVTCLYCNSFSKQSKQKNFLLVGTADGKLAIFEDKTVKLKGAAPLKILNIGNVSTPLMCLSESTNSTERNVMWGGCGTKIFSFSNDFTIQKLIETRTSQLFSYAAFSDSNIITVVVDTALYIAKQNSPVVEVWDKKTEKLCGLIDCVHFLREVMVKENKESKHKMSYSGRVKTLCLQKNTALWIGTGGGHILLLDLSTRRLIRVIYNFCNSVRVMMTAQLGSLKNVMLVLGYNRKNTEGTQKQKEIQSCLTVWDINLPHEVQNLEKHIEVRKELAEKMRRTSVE
- Procedure details: LRRK2 degradation HiBit assay, wildtype LRRK2 tagged with a HiBit tag in HEK293 cells
- Format: cell-based
- Condition description: 24 hours compound incubation, read-out: ** WT Dmax (%)

Would you please look over these solved cases?
CC1=C(C(=O)Nc2ccc3[nH]nc(-c4ccnc(N5CCN(CC6CCN(C7CCN(c8ccc9c(c8)C(=O)N(C8CCC(=O)NC8=O)C9=O)CC7)CC6)CC5)c4)c3c2)[C@@H](C)n2nnnc2N1C (stereo partly drawn) | < 50%
CC1=C(C(=O)Nc2ccc3[nH]nc(-c4ccnc(N5CCN(CCN6CCC(CN7CCN(c8ccc9c(c8)C(=O)N(C8CCC(=O)NC8=O)C9=O)CC7)CC6)CC5)c4)c3c2)C(C)(C)n2nnnc2N1C (stereo not drawn) | < 50%

Attention now shifts to the item below.
-- ask What value of Dmax has been reported for the following compound? CC1=C(C(=O)Nc2ccc3[nH]nc(-c4ccnc(N5CCN(CC6CCN(CC7CCN(c8ccc9c(c8)C(=O)N(C8CCC(=O)NC8=O)C9=O)CC7)CC6)CC5)c4)c3c2)Cn2nnnc2N1C (stereo not drawn)
-- reply < 50%

---

- Measured on: wildtype LRRK2 (Homo sapiens, UniProt Q5S007)
- Construct: endogenous in cells; host or cells: HEK293 with HiBit knocked in at the 3' end of the endogenous LRRK2 gene, stably expressing firefly luciferase
- Procedure details: LRRK2 degradation HiBit assay, wildtype LRRK2 tagged with a HiBit tag in HEK293 cells
- Assay type: cell-based
- Condition description: 24 hours compound incubation, read-out: *WT DC50
Parameter: DC50

Examples with answers:
CC1=C(C(=O)Nc2ccc3[nH]nc(-c4ccnc(N5CCN(CCN6CCN(CC7CCN(c8ccc9c(c8)C(=O)N(C8CCC(=O)NC8=O)C9=O)CC7)CC6)CC5)c4)c3c2)C(C)(C)n2nnnc2N1C (centres unmarked) | ≥ 100 nM
CC1=C(C(=O)Nc2ccc3[nH]nc(-c4ccnc(N5CCN(CCN6CCC(CC7CCN(c8ccc9c(c8)C(=O)N(C8CCC(=O)NC8=O)C9=O)CC7)CC6)CC5)c4)c3c2)[C@@H](C)n2nnnc2N1C (some centres unmarked) | 50 to 100 nM
CC1=C(C(=O)Nc2ccc3[nH]nc(-c4ccnc(N5CCN(CCN6CCC(CN7CCN(c8ccc9c(c8)C(=O)N(C8CCC(=O)NC8=O)C9=O)CC7)CC6)CC5)c4)c3c2)C(C)(C)n2nnnc2N1C (centres unmarked) | ≥ 100 nM
CC1=C(C(=O)Nc2ccc3[nH]nc(-c4ccnc(N5C[C@@H](C)N(CC6CCN(CC7CCN(c8ccc9c(c8)C(=O)N(C8CCC(=O)NC8=O)C9=O)CC7)CC6)[C@@H](C)C5)c4)c3c2)C(C)(C)n2nnnc2N1C (some centres unmarked) | ≥ 100 nM

-- ask For the compound CC1=C(C(=O)Nc2ccc3[nH]nc(-c4ccnc(N5CCN(CCN6CCN(CC7CCN(c8ccc9c(c8)C(=O)N(C8CCC(=O)NC8=O)C9=O)CC7)CC6)CC5)c4)c3c2)[C@@H](C)n2nnnc2N1C (some centres unmarked) [compound 25] , what DC50 is on record?
-- reply 50 to 100 nM

---

Entries and their measured Dmax follow.
- Measured on: G2019S LRRK2 (Homo sapiens, UniProt Q5S007, G2019S)
- Construct: expressed in transfected cells; host or cells: HEK293 (ATCC CRL-1573)
- Sequence (Q5S007 whole entry G2019S): as the sequence (Q5S007 whole entry) above, with G2019S counted along it
- Procedure details: LRRK2 degradation HiBit assay, G2019S LRRK2 tagged with a HiBit tag expressed in HEK293 cells
- Assay type: cell-based
- Condition description: HEK293, HEK293 cells, 24 hours compound incubation

Known Dmax results, listed for orientation:
CC1=C(C(=O)Nc2ccc3[nH]nc(-c4ccnc(N5CCN(CC6CCN(CC7CCN(c8ccc9c(c8)C(=O)N(C8CCC(=O)NC8=O)C9=O)CC7)CC6)[C@@H](C)C5)c4)c3c2)[C@H](C)n2nnnc2N1C (single isomer, unassigned) | 50 to 70%
CC1=C(C(=O)Nc2ccc3[nH]nc(-c4ccnc(N5CCN(CCN6CCN(CC7CCN(c8ccc9c(c8)C(=O)N(C8CCC(=O)NC8=O)C9=O)CC7)CC6)[C@@H](C)C5)c4)c3c2)C(C)(C)n2nnnc2N1C (some centres unmarked) | < 50%
CC1=C(C(=O)Nc2ccc3[nH]nc(-c4ccnc(N5CCN(CCN6CCN(CC7CCN(c8ccc9c(c8)C(=O)N(C8CCC(=O)NC8=O)C9=O)CC7)CC6)CC5)c4)c3c2)[C@@H](C)n2nnnc2N1C (some centres unmarked) | 50 to 70%
CC1=C(C(=O)Nc2ccc3[nH]nc(-c4ccnc(N5CCN(C6CN(CC7CCN(c8ccc9c(c8)C(=O)N(C8CCC(=O)NC8=O)C9=O)CC7)C6)CC5)c4)c3c2)[C@@H](C)n2nnnc2N1C (some centres unmarked) | 50 to 70%
CC1=C(C(=O)Nc2ccc3[nH]nc(-c4ccnc(N5CCN(CC6CCN(CC7CCN(c8ccc9c(c8)C(=O)N(C8CCC(=O)NC8=O)C9=O)CC7)CC6)CC5)c4)c3c2)[C@H](C)n2nnnc2N1C (some centres unmarked) | < 50%

-- ask Give G2019S LRRK2 (Homo sapiens, UniProt Q5S007, G2019S) Dmax for CC1=C(C(=O)Nc2ccc3[nH]nc(-c4ccnc(N5CCN(CC6CCN(CC7CCN(c8ccc9c(c8)C(=O)N(C8CCC(=O)NC8=O)C9=O)CC7)CC6)[C@@H](C)C5)c4)c3c2)[C@@H](C)n2nnnc2N1C (single isomer, unassigned)
-- reply 50 to 70%

-- ask API: value(readout= Dmax, system= G2019S LRRK2 (Homo sapiens, UniProt Q5S007, G2019S), query= CC1=C(C(=O)Nc2ccc3[nH]nc(-c4ccnc(N5C[C@@H](C)N(CC6CCN(CC7CCN(c8ccc9c(c8)C(=O)N(C8CCC(=O)NC8=O)C9=O)CC7)CC6)[C@@H](C)C5)c4)c3c2)C(C)n2nnnc2N1C (some centres unmarked) )
-- reply 50 to 70%

-- ask What is its Dmax for G2019S LRRK2 (Homo sapiens, UniProt Q5S007, G2019S)? Entry: CC1=C(C(=O)Nc2ccc3[nH]nc(-c4ccnc(N5CCN(CC6CCN(CC7CCN(c8ccc9c(c8)C(=O)N(C8CCC(=O)NC8=O)C9=O)CC7)CC6)CC5)c4)c3c2)[C@@H](C)n2nnnc2N1C (some centres unmarked)
-- reply < 50%

-- ask Return Dmax measured with G2019S LRRK2 (Homo sapiens, UniProt Q5S007, G2019S) given this molecule: CC1=C(C(=O)Nc2ccc3[nH]nc(-c4ccnc(N5C[C@@H](C)N(CC6CCN(CC7CCN(c8ccc9c(c8)C(=O)N(C8CCC(=O)NC8=O)C9=O)CC7)CC6)[C@@H](C)C5)c4)c3c2)C(C)(C)n2nnnc2N1C (some centres unmarked)
-- reply < 50%

-- ask Look up Dmax with G2019S LRRK2 (Homo sapiens, UniProt Q5S007, G2019S) for this molecule: CC1=C(C(=O)Nc2ccc3[nH]nc(-c4ccnc(N5CCN(CCN6CCC(CN7CCN(c8ccc9c(c8)C(=O)N(C8CCC(=O)NC8=O)C9=O)CC7)CC6)[C@@H](C)C5)c4)c3c2)C(C)(C)n2nnnc2N1C (some centres unmarked)
-- reply < 50%

-- ask What Dmax appears in the records for this molecule with G2019S LRRK2 (Homo sapiens, UniProt Q5S007, G2019S)? CC1=C(C(=O)Nc2ccc3[nH]nc(-c4ccnc(N5CCN(CCCN6CCN(c7ccc8c(c7)C(=O)N(C7CCC(=O)NC7=O)C8=O)CC6)CC5)c4)c3c2)[C@@H](C)n2nnnc2N1C (some centres unmarked)
-- reply 50 to 70%

-- ask Give Dmax (G2019S LRRK2 (Homo sapiens, UniProt Q5S007, G2019S)) of the following molecule: CC1=C(C(=O)Nc2ccc3[nH]nc(-c4ccnc(N5CCN(CC6CCN(CC7CCN(c8ccc9c(c8)C(=O)N(C8CCC(=O)NC8=O)C9=O)CC7)CC6)CC5)c4)c3c2)C(C)(C)n2nnnc2N1C (centres unmarked)
-- reply < 50%

-- ask Enter reported Dmax observed with G2019S LRRK2 (Homo sapiens, UniProt Q5S007, G2019S) for CC1=C(C(=O)Nc2ccc3[nH]nc(-c4ccnc(N5CCN(CCN6CCN(CC7CCN(c8ccc9c(c8)C(=O)N(C8CCC(=O)NC8=O)C9=O)CC7)CC6)CC5)c4)c3c2)C(C)(C)n2nnnc2N1C (centres unmarked)
-- reply < 50%

-- ask What value of Dmax on G2019S LRRK2 (Homo sapiens, UniProt Q5S007, G2019S) does CC1=C(C(=O)Nc2ccc3[nH]nc(-c4ccnc(N5CCN(CC6CCN(CC7CCN(c8ccc9c(c8)C(=O)N(C8CCC(=O)NC8=O)C9=O)CC7)CC6)[C@@H](C)C5)c4)c3c2)Cn2nnnc2N1C (some centres unmarked) have?
-- reply 50 to 70%

-- ask Lookup: Dmax / G2019S LRRK2 (Homo sapiens, UniProt Q5S007, G2019S) / CC1=C(C(=O)Nc2ccc3[nH]nc(-c4ccnc(N5CCN(CCC6CCN(CC7CCN(c8ccc9c(c8)C(=O)N(C8CCC(=O)NC8=O)C9=O)CC7)CC6)CC5)c4)c3c2)[C@@H](C)n2nnnc2N1C (some centres unmarked)
-- reply < 50%

-- ask So what Dmax did CC1=C(C(=O)Nc2ccc3[nH]nc(-c4ccnc(N5CCN(CCN6CCC(CN7CCN(c8ccc9c(c8)C(=O)N(C8CCC(=O)NC8=O)C9=O)CC7)CC6)CC5)c4)c3c2)[C@H](C)n2nnnc2N1C (some centres unmarked) get with G2019S LRRK2 (Homo sapiens, UniProt Q5S007, G2019S)?
-- reply 50 to 70%

-- ask For the record CC1=C(C(=O)Nc2ccc3[nH]nc(-c4ccnc(N5CCN(CC6CN(CC7CCN(c8ccc9c(c8)C(=O)N(C8CCC(=O)NC8=O)C9=O)CC7)C6)CC5)c4)c3c2)[C@@H](C)n2nnnc2N1C (some centres unmarked) , what value of Dmax is listed for G2019S LRRK2 (Homo sapiens, UniProt Q5S007, G2019S)?
-- reply 50 to 70%

-- ask Notebook: pull reported Dmax for G2019S LRRK2 (Homo sapiens, UniProt Q5S007, G2019S), entry CC1=C(C(=O)Nc2ccc3[nH]nc(-c4ccnc(N5CCN(CC6CCN(CC7CCN(c8ccc9c(c8)C(=O)N(C8CCC(=O)NC8=O)C9=O)CC7)CC6)CC5)c4)c3c2)Cn2nnnc2N1C (centres unmarked)
-- reply 50 to 70%

-- ask Could you share what Dmax was measured for CC1=C(C(=O)Nc2ccc3[nH]nc(-c4ccnc(N5CCO[C@@H](CN6CCN(CC7CCN(c8ccc9c(c8)C(=O)N(C8CCC(=O)NC8=O)C9=O)CC7)CC6)C5)c4)c3c2)C(C)(C)n2nnnc2N1C (some centres unmarked) , tested on G2019S LRRK2 (Homo sapiens, UniProt Q5S007, G2019S)?
-- reply < 50%

-- ask # query: Dmax | item CC1=C(C(=O)Nc2ccc3[nH]nc(-c4ccnc(N5C[C@@H](C)N(CCN6CCN(c7ccc8c(c7)C(=O)N(C7CCC(=O)NC7=O)C8=O)CC6)[C@@H](C)C5)c4)c3c2)Cn2nnnc2N1C (some centres unmarked) | system: G2019S LRRK2 (Homo sapiens, UniProt Q5S007, G2019S)
-- reply < 50%
